# Test system: TGF-β
# method: AlphaScreen SureFire p-SMAD3 (Ser423/425) assay, TGF-β-stimulated cells
# Format: cell-based
# testSettings: Mus musculus; p-SMAD3 (Ser423/425) AlphaScreen in cell lysate; MPC-11; TGF-β stimulation; read-out: TGF-β: inhibition of TGF-β signaling, TGF-β pSMAD (MPC-11)
# Text: The p-SMAD-3 (Ser423/425) SureFire® assay has been designed to measure the phosphorylation of endogenous cellular p-SMAD-3 (Ser423/425) in cell lysates and is a system for the screening of both modulators of receptor activation (e.g. agonists and antagonists) as well as agents acting intracellularly, such as small molecule inhibitors of upstream events. The assay will measure p-SMAD-3 (Ser423/425) activation by either cloned or endogenous receptors, and can be applied to primary cells. […]

compound	systemName	IC50
Cc1cc(F)c(Cl)cc1-c1nc2n(c1-c1ccc3ncsc3c1)CCC2 [Compound 297]	TGF-β	100 to 1000 nM
Fc1ccc(-c2nc3occn3c2I)cc1F [Compound 132]	TGF-β	> 1000 nM
Cc1cc(F)c(F)cc1-c1nc2n(c1-c1ccc3ncc(C(N)=O)n3c1)CCC2 [Compound 52]	TGF-β	50 to 100 nM
Fc1cc(-c2nc3n(c2-c2ccc4nccnc4c2)CCC3)cc(F)c1F [Compound 227]	TGF-β	> 1000 nM
Cc1cc(F)c(-c2nc3n(c2-c2ccc4ncsc4c2)CCC3)cc1F [Compound 285]	TGF-β	> 1000 nM
Cc1c(-c2nc3n(c2-c2ccc4ncnn4c2)CCC3)ccc(F)c1F [Compound 44]	TGF-β	> 1000 nM
Cc1cc(-c2nc3n(c2-c2ccc4nccn4c2)CCC3)ccc1F [Compound 3]	TGF-β	100 to 1000 nM
Fc1ccc(Cl)cc1-c1nc2n(c1-c1cc3cnccc3s1)CCC2 [Compound 102]	TGF-β	50 to 100 nM
Cc1ccc(-c2ccc3ncnn3c2)cc1-c1nc2n(c1-c1ccc3ncnn3c1)CCC2 [Compound 91]	TGF-β	> 1000 nM
Cc1cc(-c2nc3n(c2-c2ccc4ncnn4c2)CCC3)c(C)cc1F [Compound 64]	TGF-β	> 1000 nM
Fc1cc(F)c(F)c(-c2nc3n(c2-c2ccc4ncccc4c2)CCCN3)c1 [Compound 165]	TGF-β	100 to 1000 nM
Cc1cccc(-c2nc3occn3c2-c2ccc3ncsc3c2)c1 [Compound 141]	TGF-β	< 50 nM
Fc1cc(F)c(-c2nc3occn3c2-c2ccc3cn[nH]c3c2)cc1F [Compound 147]	TGF-β	50 to 100 nM
Fc1ccc(-c2nc3n(c2-c2ccc4cn[nH]c4c2)CCC3)cc1F [Compound 206]	TGF-β	> 1000 nM
OCC1Cn2c(nc(-c3cc(F)cc(F)c3F)c2-c2ccc3ncccc3c2)N1 (stereo not drawn) [Compound 123]	TGF-β	100 to 1000 nM

---

# Test system: TGF-β
# method: AlphaScreen SureFire p-SMAD3 (Ser423/425) assay, TGF-β-stimulated cells
# Assay type: cell-based
# testSettings: Mus musculus; p-SMAD3 (Ser423/425) AlphaScreen in cell lysate; MPC-11; TGF-β stimulation; read-out: TGF-β: inhibition of TGF-β signaling, TGF-β pSMAD (MPC-11)
pIC50: −log10 of the molar value.
Known pIC50 of a selection of compounds

compound	pIC50
CNC(=O)C1CCC2(CC1)Cc1nc(-c3ccc(F)cc3)c(-c3ccc4ncnn4c3)n1C2 (stereo not drawn) [Compound 78]	< 6.00
Cc1cccc(-c2nc3n(c2-c2ccc4ncsc4c2)CCC3)c1 [Compound 170]	7.00 to 7.30
Cc1cc(-c2nc3n(c2-c2ccc4nccnc4c2)CCC3)cc(C)c1Cl [Compound 245]	< 6.00
Fc1cc(F)c(F)c(-c2nc3n(c2-c2ccc4ncnn4c2)CCCN3)c1 [Compound 166]	7.00 to 7.30
Fc1ccc(-c2nc3n(c2-c2ccc4nccn4c2)CCC3)cc1 [Compound 2]	6.00 to 7.00
Fc1cc(F)c(-c2nc3n(c2-c2ccc4nccn4c2)CCC3)cc1F [Compound 12]	6.00 to 7.00

Data provenance: patent US10696693B2
